Source listed as patent US20140088052A1.

# Test system: Nrf2
# assay explanation: Expression of Nrf2-regulated genes GCLM and NQO1 by qRT-PCR in Beas-2B cells (screen)
# Assay type: cell-based, human
# assay context: Homo sapiens, BEAS-2B, 16 h, DMSO = 1.0 (Table 2), read-out: Relative Fold Change NQO1
Rule: measured fold induction at 10 µM below 4 gets Met; anything equal to or greater than 4 gets Not met.

Check if fold induction at 10 µM falls below 4 for COc1ccc(C(=O)/C=C/c2ccc(C(F)(F)F)cc2)c(OC)c1 [Compound 4e] .
Not met

Check if fold induction at 10 µM falls below 4 for COc1ccccc1C(=O)/C=C/c1ccccc1 [Compound 1b] .
Met

Check if fold induction at 10 µM falls below 4 for COc1cc(C(=O)/C=C/c2ccc(C(F)(F)F)cc2)cc(OC)c1OC [Compound 4i] .
Met

Check if fold induction at 10 µM falls below 4 for COc1cc(OC)c(C(=O)/C=C/c2ccccc2C(F)(F)F)c(OC)c1 [Compound 2l] .
Not met

Check if fold induction at 10 µM falls below 4 for COc1cc(C(=O)/C=C/c2ccccc2C(F)(F)F)cc(OC)c1OC [Compound 2j] .
Met

Check if fold induction at 10 µM falls below 4 for COc1cc(C(=O)/C=C/c2ccccc2)cc(OC)c1OC [Compound 1j] .
Met
